system: T1, hVISTA-Fc (R&D systems. Cat. No. 7126-B7) (human, UniProt Q9H7M9 33-194)
T1 construct: Bought antigen; also called human VISTA-Fc; VISTA-FC Human
T1 sequence: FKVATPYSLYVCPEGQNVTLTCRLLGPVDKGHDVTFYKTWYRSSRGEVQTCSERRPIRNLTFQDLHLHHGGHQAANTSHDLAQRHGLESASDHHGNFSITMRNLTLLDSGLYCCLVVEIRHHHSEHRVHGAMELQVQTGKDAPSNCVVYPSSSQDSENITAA
measurement-protocol: dissociation rate constant of scFv in the screening of optimised clones; antigen not named
readout: koff (s⁻¹)
Only the number, expressed in s⁻¹, is required.

Fill in koff for record Anti VISTA_V3_2 (scFv phage clone) (scFv, V domains shown, Optimised 1B8 variant that retains the 1B8 heavy-chain variable region, measured as scFv) VH: QMQLVQSGAEVKKPGSSVKVSCKASGGSSSNYAISWVRQAPGQGLEWMGGIIPIFGTTSYAQKFQGRVTITADGSMSTAYMELSSLRSEDTAVYYCAKGAIEPWPFYFDNWGQGTLVTVSS VL: QLVLTQPRSVSGSPGQSVTISCTGTNSDVGAYNYLSWYQQLPGRAPKVIIYDVNKRPSGVPDRFSGSRSGKTASLTISGLQAEDEADYYCAAWDDSLNDLVFGGGTKLTVLG
0.00108
